Test: Intrinsic clearance in mouse liver microsomes at 1 uM incubated for 2 to 60 mins in presence of NADPH by LC-MS/MS analysis
Type: ADME, Microsome
Conditions: time 2-60 min, read-out: CLH
READOUT: microsomal CLint at 1 µM (µL/min/mg)
Reply numerically in µL/min/mg, unit not repeated.

-- ask Fill blank: measured microsomal CLint at 1 µM of the molecule CC(C)C[C@H](NC(=O)C(NC(=O)c1cc(C(F)(F)F)ccc1C(F)(F)F)C1CC1)B1OC2C3OC(CC3C(=O)O)C2(C)O1 (some centres not stated) is ____.
-- reply 37.8

-- ask Input CC(C)C[C@H](NC(=O)C(CC1CC1)NC(=O)c1cc(C(F)(F)F)ccc1C(F)(F)F)B1OC2C3OC(CC3C(=O)O)C2(C)O1 (some centres not stated)
-- reply 49
